All values here come from PubChem BioAssay (NCI).

- System: SN12C renal
- Assay Info: NCI tumour cell line growth inhibition, 48 h
Observed Property: TGI

Here is how some compounds turned out for TGI.
- Compound: "ClCCCN(CCCCl)c1ccc(C=Nc2cccc(Cl)c2)cc1"
  TGI: "> 79.7 µM"
- Compound: "COC(=O)[C@@]12C(=O)C=CC(=O)[C@@H]1C1C(=CC2COC(C)=O)O[C@@H]2OC3(CCCCC3)O[C@H]12 (stereo not given in full)"
  TGI: "29.1 µM"
- Compound: "O=C(O)c1ccccc1NC(c1ccccc1)c1ccc2cccnc2c1O (stereo not given)"
  TGI: "> 51.4 µM"
- Compound: "CC(=O)Nc1ccc(Nc2cc(=O)[nH]c(=O)[nH]2)cc1"
  TGI: "> 100 µM"
- Compound: "CC(C)(C)OC1=C(OC(C)(C)C)C(O)(c2ccccc2)C1=O (stereo not given)"
  TGI: "> 100 µM"

Let me know recorded TGI for COc1ccccc1/C=C/C1=NN(c2cccc(S(=O)(=O)O)c2)C2(C1)SCC(=O)N2c1nc2ccccc2s1 (stereo not given) , thanks. > 100 µM

Let me know recorded TGI for `FC(F)(F)Oc1cccc(-c2cnc3ccc(-c4ccncc4)nn23)c1` , thanks. > 100 µM

Identify measured TGI corresponding to CC(C)/C=C1\CCC(CN2CCCC2)C1=O (stereo not given) 34.8 µM

Tell me its TGI given CCOC(=O)C1(C(N)=O)C(=O)c2ccncc2C1=O (stereo not given) as the entry. > 100 µM

Please supply the value of reported TGI for the item OCC1OC(n2nc(-c3ccccc3)nc2-c2cnccn2)C(O)C(O)C1O (stereo not given) > 100 µM

====

- System: SF-295 CNS
- Assay Info: NCI tumour cell line growth inhibition, 48 h
# GI50 per record follows

Here's what some known entries look like.
- Compound: "C/C(=N\\NC(=O)c1sc(=S)n(C)c1N)c1cc2ccccc2o1"
  GI50: "14400 nM"
- Compound: "Clc1ccc(CSC(Cn2ccnc2)c2ccc(Cl)cc2Cl)cc1 (centres undefined)"
  GI50: "1370 nM"
- Compound: "Cn1cc(-c2ccc3c(Nc4cccc(NC(=O)Nc5cccc(F)c5)c4)ncnc3c2)cn1"
  GI50: "1810 nM"

Now consider the entry below.
# return recorded GI50 for entry `O=C(Nc1cccc(-n2ccc3c(NC(=O)c4ccccc4)nccc32)c1)c1ccc(N2CCOCC2)c(C(F)(F)F)c1` 30.6 nM

====

Attribute: TGI
- Tested on: MOLT-4 leukemia
- Assay Info: NCI tumour cell line growth inhibition, 48 h

Find the measured TGI of `CC(C)(C)c1cc(C(=O)Nc2cc(Br)c(Br)cc2S(N)(=O)=O)cc(C(C)(C)C)c1O` with MOLT-4 leukemia as test system. 18.8 µM

====

- Test system: SN12C renal
- Assay Info: NCI tumour cell line growth inhibition, 48 h
Observed Property: TGI (µM)
Give your result in µM as a bare value.

- Compound: "Clc1ccc(CSC(Cn2ccnc2)c2ccc(Cl)cc2Cl)cc1 (centres undefined)"
  Target Desc: "SN12C renal"
  Observed Property: "TGI"
  Reading: 2.87
- Compound: "CC1CC[C@]2(C(=O)O)CCC3(COC(=O)/C=C\\c4ccc(O)cc4)C(=CCC4[C@@]5(C)CC[C@H](O)C(C)(C)C5CC[C@]43C)[C@@H]2[C@H]1C (some centres undefined)"
  Target Desc: "SN12C renal"
  Observed Property: "TGI"
  Reading: 54.2
- Compound: "NNC(=O)CSc1nc2ccc(I)cc2c(=O)n1Cc1ccccc1"
  Target Desc: "SN12C renal"
  Observed Property: "TGI"
  Reading: 48.6

Let me know recorded TGI for `COc1ccc2[nH]c(=O)c3c4ccccc4cn3c2c1` , thanks. 7.17
